system: H1299; assay: Cell proliferation assay, Alamar Blue, H1299; format: cell-based; conditions: Homo sapiens, NCI-H1299; Table 16
This listing pairs molecules with measured IC50.

>  <molecule>
O=C(O)c1ccc2c(c1)nc(Nc1ccccc1)c1ccsc12

>  <IC50 (µM)>
4.39

$$$$
>  <molecule>
NS(=O)(=O)c1cccc(Nc2nc3cc(C(=O)O)ccc3c3sccc23)c1

>  <IC50 (µM)>
9.9

$$$$
>  <molecule>
O=C(O)c1ccc2c(c1)nc(Nc1ccc(F)c(Cl)c1)c1ncsc12

>  <IC50 (µM)>
41.8

$$$$
>  <molecule>
N#Cc1cccc(Nc2nc3cc(C(=O)O)ccc3c3sccc23)c1

>  <IC50 (µM)>
19.1

$$$$
>  <molecule>
O=C(O)c1ccc2c(c1)nc(Nc1cccc(F)c1)c1ncsc12

>  <IC50 (µM)>
21.6

$$$$
>  <molecule>
C#Cc1cccc(Nc2nc3cc(C(=O)O)ccc3c3sccc23)c1 [drawing 938]

>  <IC50 (µM)>
16.9

$$$$
>  <molecule>
O=C(O)c1ccc2c(c1)nc(Nc1cccc(F)c1)c1ccsc12

>  <IC50 (µM)>
8.78

$$$$
>  <molecule>
Fc1cccc(Nc2nc3cc(-c4nnn[nH]4)ccc3c3sccc23)c1

>  <IC50 (µM)>
3.05

$$$$
>  <molecule>
c1ccc(Nc2nc3cc(-c4nnn[nH]4)ccc3c3sccc23)cc1

>  <IC50 (µM)>
11.7

$$$$
>  <molecule>
CNC(=O)c1cccc(Nc2nc3cc(C(=O)O)ccc3c3sccc23)c1

>  <IC50 (µM)>
13.8

$$$$
>  <molecule>
O=C(O)c1ccc2c(c1)nc(Nc1cc(Cl)ccc1F)c1ccsc12

>  <IC50 (µM)>
17.5

$$$$
>  <molecule>
CNC(=O)c1cccc(Nc2nc3cc(-c4nnn[nH]4)ccc3c3sccc23)c1

>  <IC50 (µM)>
4.01

$$$$
>  <molecule>
O=C(O)c1ccc2c(c1)nc(Nc1cccc(Cl)c1)c1ccsc12

>  <IC50 (µM)>
14.3

$$$$
>  <molecule>
c1ccc(Nc2nc3cc(-c4nnc[nH]4)ccc3c3sccc23)cc1

>  <IC50 (µM)>
17.8

$$$$
>  <molecule>
O=C(NC1CC1)c1cccc(Nc2nc3cc(-c4nnn[nH]4)ccc3c3sccc23)c1

>  <IC50 (µM)>
12.7

$$$$
>  <molecule>
O=C(O)c1ccc2c(c1)nc(Nc1cc(F)cc(F)c1)c1ccsc12

>  <IC50 (µM)>
8.14

$$$$
>  <molecule>
O=C(O)c1ccc2c(c1)nc(Nc1ccccc1)c1ncsc12

>  <IC50 (µM)>
38.8

$$$$
>  <molecule>
O=C(O)c1ccc2c(c1)nc(Nc1cc(Cl)cc(Cl)c1)c1ccsc12 [drawing 984]

>  <IC50 (µM)>
0.97

$$$$
>  <molecule>
COc1cccc(Nc2nc3cc(C(=O)O)ccc3c3scnc23)c1

>  <IC50 (µM)>
18.5

$$$$
>  <molecule>
Clc1cccc(Nc2nc3cc(-c4nnn[nH]4)ccc3c3sccc23)c1

>  <IC50 (µM)>
15.2

$$$$
>  <molecule>
CN(C)CCNc1nc2cc(C(=O)O)ccc2c2sccc12

>  <IC50 (µM)>
8.9

$$$$

====

Target: PARP (Homo sapiens (Human))
Sequence (P09874 whole entry): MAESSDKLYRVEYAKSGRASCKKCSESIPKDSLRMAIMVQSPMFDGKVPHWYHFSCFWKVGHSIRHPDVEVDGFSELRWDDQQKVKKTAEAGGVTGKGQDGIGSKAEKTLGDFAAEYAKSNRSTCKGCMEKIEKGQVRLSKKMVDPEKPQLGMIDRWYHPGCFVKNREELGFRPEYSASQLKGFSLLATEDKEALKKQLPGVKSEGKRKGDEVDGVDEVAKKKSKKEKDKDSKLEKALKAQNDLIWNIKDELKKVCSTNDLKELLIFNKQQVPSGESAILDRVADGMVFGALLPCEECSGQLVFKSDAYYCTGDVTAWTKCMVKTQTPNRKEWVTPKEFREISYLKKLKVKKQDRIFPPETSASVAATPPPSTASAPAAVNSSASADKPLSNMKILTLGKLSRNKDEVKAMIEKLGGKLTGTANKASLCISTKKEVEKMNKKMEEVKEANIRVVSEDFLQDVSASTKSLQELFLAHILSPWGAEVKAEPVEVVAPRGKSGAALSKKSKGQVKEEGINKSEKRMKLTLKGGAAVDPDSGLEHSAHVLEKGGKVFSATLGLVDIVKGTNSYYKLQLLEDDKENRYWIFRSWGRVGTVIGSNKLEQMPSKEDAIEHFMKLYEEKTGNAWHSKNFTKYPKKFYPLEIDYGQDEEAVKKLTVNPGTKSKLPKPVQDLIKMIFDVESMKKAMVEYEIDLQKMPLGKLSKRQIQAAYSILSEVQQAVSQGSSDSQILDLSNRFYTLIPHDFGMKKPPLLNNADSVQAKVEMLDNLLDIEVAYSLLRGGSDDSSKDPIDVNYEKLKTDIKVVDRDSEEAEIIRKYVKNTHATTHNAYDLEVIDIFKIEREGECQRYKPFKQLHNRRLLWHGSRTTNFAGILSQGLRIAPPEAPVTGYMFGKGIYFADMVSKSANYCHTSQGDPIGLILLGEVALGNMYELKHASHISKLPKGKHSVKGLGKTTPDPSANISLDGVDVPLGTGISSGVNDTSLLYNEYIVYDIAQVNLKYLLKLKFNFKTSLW
Experiment: PARP assay (chemiluminescent PARP assay kit, Trevigen)
Assay type: biochemical
Conditions: 20 uM; Table 12; read-out: PARP % inhib @ 20 uM
Procedure: Modulatory activity of compounds described herein was assessed in vitro in cell-free CK2 assays. Modulatory activity of compounds described herein also are assessed in vitro in cell-free PARP assays. These assays are described hereafter. PARP assays are conducted using a chemiluminescent PARP assay kit (Trevigen). […]

>  <molecule.smiles>
CC(=O)N1CCN(C(=O)c2ccc3c(c2)[nH]c(=O)c2ccsc23)CC1

>  <display.unit>
%

>  <inhibition at 20 µM>
94

$$$$
>  <molecule.smiles>
O=c1[nH]c2ccccc2c2sccc12

>  <display.unit>
%

>  <inhibition at 20 µM>
0

$$$$
>  <molecule.smiles>
O=C(NCCN1CCOCC1)c1ccc2c(c1)[nH]c(=O)c1ccsc12

>  <display.unit>
%

>  <inhibition at 20 µM>
96

$$$$
>  <molecule.smiles>
O=C(O)CNC(=O)c1ccc2c(c1)[nH]c(=O)c1ccsc12

>  <display.unit>
%

>  <inhibition at 20 µM>
97

$$$$
>  <molecule.smiles>
O=C(O)CCNC(=O)c1ccc2c(c1)[nH]c(=O)c1ccsc12

>  <display.unit>
%

>  <inhibition at 20 µM>
95

$$$$
>  <molecule.smiles>
O=C(Nc1nccs1)c1ccc2c(c1)[nH]c(=O)c1ccsc12

>  <display.unit>
%

>  <inhibition at 20 µM>
52

$$$$
>  <molecule.smiles>
COc1ccccc1NC(=O)c1ccc2c(c1)[nH]c(=O)c1ccsc12

>  <display.unit>
%

>  <inhibition at 20 µM>
24

$$$$
>  <molecule.smiles>
O=C(NCCc1cnc[nH]1)c1ccc2c(c1)[nH]c(=O)c1ccsc12

>  <display.unit>
%

>  <inhibition at 20 µM>
97

$$$$
>  <molecule.smiles>
O=C(Nc1ccccc1)c1ccc2c(c1)[nH]c(=O)c1ccsc12

>  <display.unit>
%

>  <inhibition at 20 µM>
22

$$$$
>  <molecule.smiles>
CN(C)CCNC(=O)c1ccc2c(c1)[nH]c(=O)c1ccsc12

>  <display.unit>
%

>  <inhibition at 20 µM>
85

$$$$
>  <molecule.smiles>
O=C(Nc1cccnc1)c1ccc2c(c1)[nH]c(=O)c1ccsc12

>  <display.unit>
%

>  <inhibition at 20 µM>
62

$$$$

====

system: HT29; assay: Cell proliferation assay, Alamar Blue, HT29; format: cell-based; conditions: Homo sapiens, HT-29; Table 16
pIC50: −log10 of the molar value.
Label rule, in plain words: pIC50 of 5 and up is class 1, under 5 is class 0.

>  <molecule>
C#Cc1cccc(Nc2nc3cc(C(=O)O)ccc3c3sccc23)c1 [drawing 938]

>  <discrete.label>
class 0

$$$$
>  <molecule>
O=C(O)c1ccc2c(c1)nc(Nc1cccc(F)c1)c1ccsc12

>  <discrete.label>
class 1

$$$$
>  <molecule>
O=C(NC1CC1)c1cccc(Nc2nc3cc(-c4nnn[nH]4)ccc3c3sccc23)c1

>  <discrete.label>
class 1

$$$$
>  <molecule>
CNC(=O)c1cccc(Nc2nc3cc(C(=O)O)ccc3c3sccc23)c1

>  <discrete.label>
class 1

$$$$
>  <molecule>
N#Cc1cccc(Nc2nc3cc(C(=O)O)ccc3c3sccc23)c1

>  <discrete.label>
class 0

$$$$

====

tested on: HCT-116 human colorectal carcinoma cells; assay: Cell proliferation assay, Alamar Blue, HCT-116; assay type: cell-based; conditions: HCT-116, Table 16, second HCT-116 column;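 note: cells exposed to compound for about 4 days, then Alamar Blue added and fluorescence read after about 4 h, medium-only wells as control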
This listing pairs compounds with measured IC50.
observed.property: IC50

>  <compound>
O=C(O)c1ccc2c(c1)nc(Nc1cc(Cl)cc(Cl)c1)c1ccsc12 [drawing 984]

>  <recorded.value>
8.76 µM

$$$$
>  <compound>
O=C(O)c1ccc2c(c1)nc(Nc1cccc(F)c1F)c1ccsc12

>  <recorded.value>
> 10 µM

$$$$
>  <compound>
O=C(O)c1ccc2c(c1)nc(Nc1cc(F)cc(Cl)c1)c1ccsc12

>  <recorded.value>
> 10 µM

$$$$
>  <compound>
O=C(O)c1ccc2c(c1)nc(Nc1ccc3cc[nH]c3c1)c1ccsc12

>  <recorded.value>
> 10 µM

$$$$
>  <compound>
Fc1cc(F)cc(Nc2nc3cc(-c4nnn[nH]4)ccc3c3sccc23)c1

>  <recorded.value>
> 10 µM

$$$$

====

system: H460; assay: Cell proliferation assay, Alamar Blue, H460; type: cell-based; conditions: Homo sapiens, NCI-H460; H460 cells, anti-proliferative

>  <compound>
O=C(O)c1ccc2c(c1)nc(Nc1cc(Cl)cc(Cl)c1)c1ccsc12 [drawing 991]

>  <IC50 (µM)>
12.3

$$$$

====

experiment: Pharmacokinetics in ICR mice after IV and PO dose; assay type: in vivo; settings: mouse, plasma, PO 25 mg/kg
observed.property: Tmax

>  <compound>
O=C(O)c1ccc2c(c1)nc(Nc1cccc(Cl)c1)c1ccncc12 [compound A1]

>  <recorded.value>
15 min

$$$$

====

experiment: Pharmacokinetics in ICR mice after IV and PO dose; format: in vivo; conditions: mouse, plasma, IV, 3.4 mg/kg

>  <compound>
C#Cc1cccc(Nc2nc3cc(C(=O)O)ccc3c3cncnc23)c1 [drawing 1347]

>  <display.unit>
ng·h/mL

>  <AUC(0-inf)>
4900

$$$$

====

experiment: Pharmacokinetics in ICR mice after IV and PO dose; format: in vivo; conditions: mouse, plasma, IV, 3.4 mg/kg
observed.property: Vd (L/kg)

>  <compound>
C#Cc1cccc(Nc2nc3cc(C(=O)O)ccc3c3cncnc23)c1 [drawing 1347]

>  <observed.property>
Vd

>  <recorded.value>
4.9

$$$$
